Assignment: determine reported LD50 at 168 h for the given compounds.
# Assay Details: Acute toxicity in po dosed mouse assessed as death within 7 days
# Type: organism-based
# Conditions Used: in vivo
Express your answer in mg/kg, writing the number without its unit.

Entry COc1ccc2c(c1)c(CC(=O)O)c(C)n2C(=O)c1ccc(Cl)cc1 ; LD50 at 168 h = 33

Entry C#CC[Se]c1ccccc1C(=O)O ; LD50 at 168 h = 600

# compound CNC(=O)c1ccc([Se]C=C(C)C)cc1 ; its LD50 at 168 h = 600

====

# System: Rattus norvegicus
# Assay Details: Antiinflammatory activity against cotton pellets-induced inflammation in Wistar rat assessed as wet weight of granuloma at 10 mg/kg, po after 7 days
# Format: functional
For each entry below, report its Activity value.
Only the number, expressed in g, is required.

Entry C#CC[Se]c1ccc(C(=O)NC)cc1 , tested on Rattus norvegicus, has a reported Activity of 0.447

Result for C#CC[Se]c1ccccc1C(=O)O , tested on Rattus norvegicus, Activity: 0.353

The measured Activity that O=C(O)C[Se]c1ccccc1C(=O)O showed for Rattus norvegicus is 0.378

Bench note, Rattus norvegicus: CNC(=O)c1ccc([Se]C=C(C)C)cc1 , Activity reads 0.369

The reported Rattus norvegicus Activity of CNC(=O)c1ccc([Se]Cc2ccccc2)cc1 is 0.414

Bench note, Rattus norvegicus: entry CC(C)=C[Se]c1ccccc1C(=O)O , its Activity = 0.406
